METHOD_NOTES: NCI Yeast Anticancer Drug Screen. Data for the mlh1 rad18 strain (AID 175)
EXPERIMENTAL_SETUP: S. cerevisiae mlh1 rad18 strain growth inhibition; at 50.0 µM; hits give high values
Compounds without any hit were thinned out: in the full panel of roughly 79,000, 15% have a hit.
VALUE_TYPE: growth inhibition (%)
Give bare numbers, in %.

Here are 5 compounds together with their reported answers.
- COMPOUND: "CC(C)(C)C(=O)CC(=O)C(F)(F)C(F)(F)C(F)(F)F.[Ag]"
  REPORTED: 88.4
- COMPOUND: "O=C(O)C1C(C(=O)Nc2ccc3c(c2)Cc2ccccc2-3)C2(Cl)C(Cl)=C(Cl)C1(Cl)C2(Cl)Cl (stereo unspecified)"
  REPORTED: 98.3
- COMPOUND: "CCCCCCCCCCCCSCCCN"
  REPORTED: 99.5
- COMPOUND: "COc1nc(NC2OC(CO)C(O)C(O)C2O)c(Cl)c(=O)[nH]1 (stereo unspecified)"
  REPORTED: 1.65
- COMPOUND: "NC(=S)SCCC(=O)O"
  REPORTED: 2.85

For the 4 compounds below, give their growth inhibition values.
1. O=C1/C(=C/c2ccccc2)CN(C(=O)CCN2CCCC2)C/C1=C\c1ccccc1
2. Cc1ccc2sc(=S)sc2c1
3. Oc1c(Br)ccc2cccnc12
4. NC(=S)NNCCC(=O)Nc1ccccc1C(F)(F)F

1. 90.5
2. 72.3
3. 82.3
4. 2.75

For the 2 compounds below, give their growth inhibition values.
1. COc1cc2c(c(OC)c1OC)-c1ccc(O)c(=O)cc1C(N=Cc1ccccc1)CC2 (stereo unspecified)
2. C=C1C[C@H](O)[C@H]2C(C[Se]c3ccccc3)C(=O)O[C@@H]2[C@H]2[C@H](C)C(O)C[C@@H]12 (stereo partly specified)

18.8
86.5

----------
METHOD_NOTES: NCI Yeast Anticancer Drug Screen. Data for the bub3 strain (AID 167)
EXPERIMENTAL_SETUP: S. cerevisiae bub3 mutant strain, at 50.0 µM, hits give high values
This is part of a sample that, as a whole, favours compounds with a hit. Of some 79,000 tested, about 15% had one in any assay.
VALUE_TYPE: growth inhibition (%)
Give bare numbers, in %.

Here are 4 molecules together with their reported answers.
- MOLECULE: "Nc1ccc(-c2ccc(Cl)cc2)cc1"
  growth inhibition [%]: 96.9
- MOLECULE: "S=C(Nc1ccccc1)[S][Sb]([S]C(=S)Nc1ccccc1)[c]1ccccc1"
  growth inhibition [%]: 3.15
- MOLECULE: "S=C(Nc1ccccc1)N(Cc1ccccc1)c1ccccc1"
  growth inhibition [%]: 65.9
- MOLECULE: "O=C1Oc2ccccc2C(=O)/C1=C/N1C(=O)/C(=C/c2ccc([N+](=O)[O-])cc2)SC1=S"
  growth inhibition [%]: 85

For the 2 molecules below, give their growth inhibition values.
1. CC(=O)CCCOC(C)=O
2. CC(C)=CCC/C(C)=C/CC/C(C)=C/CC/C=C(\C)CC/C=C(\C)CCC[N+](C)(C)[O-]

-0.55
98.8

For the 5 molecules below, give their growth inhibition values.
1. NC(=S)c1cccc(OCCCOc2ccccc2)c1
2. O[Si](O)(c1ccccc1)c1ccccc1
3. CCCCCCCCCCCC(=O)N(CCOC(=O)c1ccco1)CCOC(=O)c1ccco1
4. COC(=O)C(=O)C(=O)C1CCCC(c2ccccc2)C1=O (stereo unspecified)
5. ClC(Cl)(Cl)C1OCOC(C(Cl)(Cl)Cl)O1 (stereo unspecified)

[99.5, 95.6, 97.8, 97.8, 99.3]
